# assayMethodText: Pharmacokinetic study in normal and arthritic model rats after oral administration of APR extract (UPLC-MS/MS of plasma)
# testContext: Sprague-Dawley, rat, plasma, po, 4.1 mL/kg, t 1/2, arthritic model rats (complete Freund's adjuvant), oral APR extract 4.1 mL/kg, mean ± SD, n = 6
# Procedure: One hundred grams of the APR sample was extracted by reflux with 800 mL 50% ethanol/water (v/v) for 3 times (2 hours each time), then combined with the filtrate and concentrated under vacuum with heat, and the concentration of APR extract was 0.37 g/mL. All the sample solutions were stored at 4°C before analysis. Twelve SD rats were randomly divided into two groups (n = 6) and named as the model group and the normal group, respectively. […]
reportedEndpoint: half-life (h)
Report the value in h with no unit label.

Fill blank: measured half-life of the compound CC(C)(O)[C@@H]1Cc2c(ccc3ccc(=O)oc23)O1 [Columbianetin, columbianetin] is ____. 6.07

Fill blank: measured half-life of the compound O=C(/C=C/c1ccc(O)c(O)c1)O[C@@H]1C[C@](O)(C(=O)O)C[C@@H](O)[C@H]1O [Chlorogenic acid, chlorogenic acid] is ____. 52

Fill blank: measured half-life of the compound COc1ccc2ccc(=O)oc2c1CC=C(C)C [Osthol, osthol] is ____. 6.42

Fill blank: measured half-life of the compound O=c1ccc2cc3ccoc3cc2o1 [Psoralen, psoralen] is ____. 5.98

Provenance of the data: paper PMC9398717
